Let's look at some compounds and their measured hERG current change (%, negative = inhibition) at 10uM.
# system.name: human ether-à-go-go-related gene (hERG) potassium channel (human, UniProt Q12809);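 note: peak tail current of the secondary pulse compared with the same well before compound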
# Sequence (Q12809 whole entry, looked up): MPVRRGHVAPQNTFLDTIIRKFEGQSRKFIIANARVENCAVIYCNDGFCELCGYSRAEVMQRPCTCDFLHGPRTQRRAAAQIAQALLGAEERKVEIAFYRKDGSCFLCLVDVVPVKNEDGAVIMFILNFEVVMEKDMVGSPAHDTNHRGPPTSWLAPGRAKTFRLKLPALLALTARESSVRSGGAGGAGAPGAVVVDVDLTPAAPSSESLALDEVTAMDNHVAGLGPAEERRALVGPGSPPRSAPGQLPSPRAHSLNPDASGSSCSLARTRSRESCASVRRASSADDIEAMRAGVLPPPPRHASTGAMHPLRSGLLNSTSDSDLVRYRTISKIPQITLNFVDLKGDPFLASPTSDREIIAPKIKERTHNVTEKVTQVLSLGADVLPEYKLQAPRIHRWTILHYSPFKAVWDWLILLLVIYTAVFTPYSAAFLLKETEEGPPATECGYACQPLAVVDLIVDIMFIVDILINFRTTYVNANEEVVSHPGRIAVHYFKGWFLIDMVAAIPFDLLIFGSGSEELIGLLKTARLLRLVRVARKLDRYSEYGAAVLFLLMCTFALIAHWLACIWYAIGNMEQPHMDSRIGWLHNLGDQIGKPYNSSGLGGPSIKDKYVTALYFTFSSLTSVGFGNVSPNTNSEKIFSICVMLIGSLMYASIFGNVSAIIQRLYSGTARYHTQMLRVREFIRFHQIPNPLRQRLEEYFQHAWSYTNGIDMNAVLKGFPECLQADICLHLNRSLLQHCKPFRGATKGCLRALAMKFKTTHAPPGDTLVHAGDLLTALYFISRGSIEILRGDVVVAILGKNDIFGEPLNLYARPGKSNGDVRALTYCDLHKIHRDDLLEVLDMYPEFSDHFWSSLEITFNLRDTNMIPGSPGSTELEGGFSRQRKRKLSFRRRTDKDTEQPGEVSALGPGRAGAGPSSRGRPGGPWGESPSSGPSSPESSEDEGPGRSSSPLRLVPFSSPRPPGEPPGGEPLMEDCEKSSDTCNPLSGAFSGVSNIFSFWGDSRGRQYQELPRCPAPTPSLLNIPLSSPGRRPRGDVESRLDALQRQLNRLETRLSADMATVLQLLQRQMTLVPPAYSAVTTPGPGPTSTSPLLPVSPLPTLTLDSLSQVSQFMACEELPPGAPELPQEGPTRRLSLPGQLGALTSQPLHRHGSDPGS
# method.summary: primary screen, population patch clamp on CHO cells stably expressing hERG; higher = less effect of the substance
The whole screen tested about 310,000 compounds, of which about 14,000 (4.5%) showed an effect of 50% or more. Effects have a minus sign here. The entries come from a sample that favours strong results as a whole.
property: hERG current change (%, negative = inhibition) at 10uM (%)

- compound: "O=C(CCS(=O)(=O)c1ccccc1)N1CCN(c2ccc(F)cc2)CC1"
  value: -35.9
- compound: "O=C(NCc1ccco1)c1ccc(Cn2c(=O)c3ccccc3n(Cc3ccc(Cl)cc3)c2=O)cc1"
  value: 8.16
- compound: "Clc1cncc(Cl)c1N/N=C/c1ccccc1"
  value: -1.37
- compound: "Cc1cc(C)cc(NC(=O)CN2C(=O)C3CC=CCC3C2=O)c1 (stereo not drawn)"
  value: 4.39
- compound: "CCC1(OC(=O)c2ccccc2)CC(C)N(C)CC1C.Cl (stereo not drawn)"
  value: -7.85
- compound: "CCCNC(=O)C(Cc1cccc(C#N)c1)NC(=O)c1ccc(C#N)cc1 (stereo not drawn)"
  value: -55.9
- compound: "COc1ccc2c(c1)c1nc3ccccc3nc1n2Cc1ccc(OC(C)C)c(OC)c1"
  value: -0.905
- compound: "N=c1c(C(=O)NCc2ccccc2)cc2c(=O)n3ccccc3nc2n1Cc1ccco1"
  value: -76.4
- compound: "N=c1c(C(=O)NCCc2ccccc2)cc2c(=O)n3ccccc3nc2n1Cc1ccco1"
  value: -77.9
- compound: "CCC(=O)OC1(Cc2ccc(CC)cc2)CC(C)N(C)CC1C.Cl (stereo not drawn)"
  value: -59.4
- compound: "CCOC(=O)Cn1nc(C)c(NC(=O)COc2ccc(C)c(C)c2)c1C"
  value: 12.2
- compound: "Cc1ccc(NCc2n[nH]c(=S)n2-c2ccccc2)cc1"
  value: 15
- compound: "CS(=O)(=O)c1ccc2nnn(OCC(=O)Nc3ccc(Br)cc3Br)c2c1"
  value: 7.34
- compound: "CCc1ccc(CC2(O)CC(C)N(C)CC2C)cc1 (stereo not drawn)"
  value: -29.7
- compound: "O=C(CCS(=O)(=O)c1ccc(Br)cc1)N1CCN(c2ccc(Cl)cc2)CC1"
  value: -9.11
- compound: "NC(=O)CC(NC(=O)Cc1ccc(Br)cc1)c1ccc(N2CCN(c3ccccn3)CC2)c([N+](=O)[O-])c1 (stereo not drawn)"
  value: 17.2
- compound: "O=C(CCS(=O)(=O)c1ccc(Br)cc1)N1CCN(c2ccc(F)cc2)CC1"
  value: -66.3
- compound: "COc1ccc2nc(NC(=O)c3cccs3)sc2c1"
  value: 8.71
- compound: "CCOC(=O)C1=C(N)n2c(s/c(=C/c3ccco3)c2=O)=C(C(=O)OC)C1c1ccco1 (stereo not drawn)"
  value: -2.57
- compound: "CC(=O)NCCC(=O)Nc1nc(-c2cccs2)c(-c2cccs2)s1"
  value: -6.66
- compound: "COCCNC(=O)CN1CCN(S(=O)(=O)c2ccc3c(c2)CCCC3)CC1"
  value: -7.28
- compound: "Fc1ccc(/C=N/Nc2cc(N3CCOCC3)ncn2)cc1"
  value: 15.4
- compound: "CCn1cc(S(=O)(=O)N2CCCC2)cn1"
  value: 8.1
- compound: "CCCc1n[nH]c(=O)c2c1nnn2Cc1ccccc1"
  value: 4.86
